Molecular target: Fuc(a1-2)[Gal(a1-3)]Gal(b1-4)GlcNAc
Assay: glycan array binding signal (z-score within array); higher = stronger binding
Conditions: glycan notation: IUPAC condensed, linker removed
The sample as a whole holds a higher share of the strongest signals than the screen did.
quantity name: glycan array binding signal (z-score)

Solved cases (3 shown):
{"binder": "AFL5 (Aspergillus fumigatus), Q4WB00 (protein) MDNFMEMTKKLGHQPELLRLRALDATYDDALEGKLVVAPLDMSEPGKKILDSGTADGTWLRNVRSKQSVPHDYYGSDVEGELFPKDPDGITYFAHSFKDPWPQQYLGFFDLVHIRGSLAGSAPEGPAPVIQNLTTLLKPGGWVQLMEMNAFSPPPNGPAMTDFAKMASEMFTGIGVGDFANNNKSMLEDAGLKNVQEKRVIVNLGKKAKPELHDQSIHGVTGPIVPLTSVARTVKSSFTGEQLDALPARVKEELETEGGQVEMIIAFGQKA", "glycan array binding signal (z-score)": -0.456}
{"binder": "BC2LB (Burholderia cenocepacia), B4EH85_BURCJ (protein) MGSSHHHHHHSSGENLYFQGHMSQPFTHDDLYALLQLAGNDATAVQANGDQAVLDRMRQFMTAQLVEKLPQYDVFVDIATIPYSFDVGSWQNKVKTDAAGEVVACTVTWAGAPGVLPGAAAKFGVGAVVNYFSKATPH", "glycan array binding signal (z-score)": -0.238}
{"binder": "PEB3 (Campylobacter jejuni), Q0PBL7 (protein) MKKIITLFGACALAFSMANADVNLYGPGGPHTALKDIANKYSEKTGVKVNVNFGPQATWFEKAKKDADILFGASDQSALAIASDFGKDFNVSKIKPLYFREAIILTQKGNPLKIKGLKDLANKKVRIVVPEGAGKSNTSGTGVWEDMIGRTQDIKTIQNFRNNIVAFVPNSGSARKLFAQDQADAWITWIDWSKSNPDIGTAVAIEKDLVVYRTFNVIAKEGASKETQDFIAYLSSKEAKEIFKKYGWRE", "glycan array binding signal (z-score)": 0.283}

Problem: What does the record list as glycan array binding signal (z-score) for Aap lectin (Staphylococcus epidermidis) (protein) VNLNYSSPFMSLLSMPADSSSNNTKNTIDIPPTTVKGRDNYDFYGRVDIESNPTDLNATNLTRYNYGQPPGTTTAGAVQFKNQVSFDKDFDFNIRVANNRQSNTTGADGWGFMFSKKDGDDFLKNGGILREKGTPSAAGFRIDTGYYNNDPLDKIQKQAGQGYRGYGTFVKNDSQGNTSKVGSGTPSTDFLNYADNTTNDLDGKFHGQKLNNVNLKYNASNQTFTATYAGKTWTATLSELGLSPTDSYNFLVTSS ?
Solution: 3.04

Problem: What does the record list as glycan array binding signal (z-score) for Ecp6 (Cladosporium fulvum), B3VBK9 (protein) MQSMILFAAALMGAAVNGFVLPRTDDPDCETKATDCGSTSNIKYTVVKGDTLTSIAKKFKSGICNIVSVNKLANPNLIELGATLIIPENCSNPDNKSCVSTPAEPTETCVPGLPGSYTIVSGDTLTNISQDFNITLDSLIAANTQIENPDAIDVGQIITVPVCPSSQCEAVGTYNIVAGDLFVDLAATYHTTIGQIKALNNNVNPSKLKVGQQIILPQDCKNVTTAVA ?
Solution: -0.078
